Ref: patent US20220125947A1

Target: T1, T cell receptor (TCR) Vγ9 (TRGV9) (human, UniProt Q99603 21-122)
T1 chain (looked up): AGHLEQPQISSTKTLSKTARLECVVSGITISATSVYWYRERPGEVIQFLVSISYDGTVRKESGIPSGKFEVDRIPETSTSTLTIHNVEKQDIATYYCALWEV
Assay: cell-based or functional assay
MEASURE: IFNγ, Luminex (supernatant)

[[record]]
binder = "VG9B44 (antibody, human IgG1, kappa, V domains shown) VH: QVQLQQSGPGLVKPSQTLSLTCAISGDSVSSNSAAWNWIRQSPSRGLEWLGRTYYRSKWYNDYPISVKSRISINPDTSKNQFSLQLNSVTPEDTAVYYCARESGSYYTDGFDIWGQGTMVTVSS VL: DIQMTQSPSFLSASVGDRVTITCRASQGISSYLAWYQQKPGKAPKLLIYAASTLQSGVPSRFSGSGSGTEFTLTISSLQPEDFATYYCQEFNSYPYTFGQGTKLEIKR"
readout_value = 1150

[[record]]
binder = "VG9B384 (antibody, human IgG1, lambda, V domains shown) VH: QVQLQESGPALVKPTQTLTLTCTFSGFSLSSSGMCVSWIRQPPGKALEWLTLIDWFDDKYYSTSLKTRLTISKDTSKNQVVLTMTNMDPVDTATYYCARIRGTGAYYYGLDVWGQGTMVTVSS VL: SYELMQPPSVSVSPGQTASITCSGNELGDKYASWYQQQPGQSPVLVIYQDNKRPSGIPERFSGSNSGNTATLTISGTQAMDEADYYCQAWDSSKVVFGGGTKLTVLG"
readout_value = 1100

[[record]]
binder = "VG9B162 (antibody, human IgG1, lambda, V domains shown) VH: QVQLVESGAEVTKPGASVKVSCKASGYTFTGDYMHWVRQAPGQGLEWMGWINPNSGYTNYAQKFQGRVTMTRDTSISTAYMELSRLRSDDTAVYYCAREGDAFDVWGQGTMVTVSS VL: QLVLTQSSSASGSPGQSVTISCTGTSSDVGGYNYVSWYQQHPGKAPKLMIYEVSKRPSGVPDRFSGSKSGNTASLTVSGLQAEDEADYYCNSYAGSNNFEVFGGGTKLTVLG"
readout_value = 57

[[record]]
binder = "VG9B191 (antibody, human IgG1, lambda, V domains shown) VH: EVQLVQSGGGLVKPGGSLRLSCAASGFTFSRYSMNWVRQAPGKGLEGVSSISSSSSYIYYADSVKGRFTISRDNAKNSLYLQMNSLRAEDTAVYYCARDGPTVNWDYYFDLWGRGTLVTVSS VL: QSVLTQPPSVSAAPGQKVTISCSGSSSNIGNNYVSWYQQLPGTAPKLLIYDNNKRPSGIPDRFSGSKSGTSATLGITGLQTGDEADYYCGTWDSSLSTSVVFGGGTKLTVLG"
readout_value = 1380

[[record]]
binder = "VG9B36 (antibody, human IgG1, kappa, V domains shown) VH: QVQLVESGGGLVKPGGSLRLSCASSGFTFSSYGMYWVRQAPGKGLEWVSSISTGSSYIYYADSVKGRFTISRDNAKNSLYLQMNSLRAEDTAVYYCARDKGLAVTGYIMDVWGQGTTVTVSS VL: EIVLTQSPSSLSASVGDRVTITCQASQDISNYLNWYQQKPGKAPKLLIYDASNLETGVPSRFSGSGSGTDFTFTISSLQPEDIAIYYCQQYDNLPMYTFGQGTKVEIKR"
readout_value = 2580

[[record]]
binder = "VG9B67 (antibody, human IgG1, kappa, V domains shown) VH: EVQLVESGGGLVKPGGSLRLSCAASGFTFSSYTMNWVRQAPGKGLEWVSSISSSSSYIDYAESVKGRFTISRDNAKNSLYLQMNSLRAEDTAVYYCARDGDILATIRGSFDYWGQGTTVTVSS VL: DIVMTQTPLSLPVTPGEPASISCRSSQSLLDSDAGNTYLDWYLQKPGQSPQLLIYTLSYRASGVPDRFSGSGSGTDFTLKISRVEAEDVAIYYCMQRIEFPITFGQGTKVEIKR"
readout_value = 972

